Tested on: Escherichia coli TOP10
method summary: shrunken log2 fold change of peptide-encoding DNA abundance (4.5 h post-induction vs induction); higher = less antimicrobial activity (less host growth inhibition)
assay setup: time post-induction: 4.5 h; library: site-saturation at positions 5, 18, 19, 20
Binary call on shrunken log2 fold change: Met from 0.03 upward, Not met beneath that.

macromolecule sequence | experimental system | category
RRIRKRPPRLPRPRPRPNTTPRP | Escherichia coli TOP10 | Not met
RRIRCRPPRLPRPRPRPPNMPRP | Escherichia coli TOP10 | Not met
RRIRWRPPRLPRPRPRPMFSPRP | Escherichia coli TOP10 | Not met
RRIRCRPPRLPRPRPRPYICPRP | Escherichia coli TOP10 | Not met
RRIRRRPPRLPRPRPRPCASPRP | Escherichia coli TOP10 | Not met
RRIRGRPPRLPRPRPRPYEEPRP | Escherichia coli TOP10 | Met
RRIRNRPPRLPRPRPRPIQKPRP | Escherichia coli TOP10 | Not met
RRIRLRPPRLPRPRPRPFWFPRP | Escherichia coli TOP10 | Met
RRIRHRPPRLPRPRPRPDFNPRP | Escherichia coli TOP10 | Not met
RRIRWRPPRLPRPRPRPIACPRP | Escherichia coli TOP10 | Met
RRIRHRPPRLPRPRPRPYEWPRP | Escherichia coli TOP10 | Not met
RRIRQRPPRLPRPRPRPDANPRP | Escherichia coli TOP10 | Met
RRIRPRPPRLPRPRPRPRERPRP | Escherichia coli TOP10 | Met
RRIRGRPPRLPRPRPRPHLNPRP | Escherichia coli TOP10 | Met

----------
Each record here notes measured shrunken log2 fold change.
System: Escherichia coli TOP10
method summary: shrunken log2 fold change of peptide-encoding DNA abundance (4.5 h post-induction vs induction); higher = less antimicrobial activity (less host growth inhibition)
assay setup: time post-induction: 4.5 h; library: site-saturation at positions 5, 18, 19, 20
experimental endpoint: shrunken log2 fold change

macromolecule sequence | experimental system | experimental endpoint | readout number
RRIRQRPPRLPRPRPRPWNMPRP | Escherichia coli TOP10 | shrunken log2 fold change | -0.086
RRIRCRPPRLPRPRPRPYRLPRP | Escherichia coli TOP10 | shrunken log2 fold change | -0.0743
RRIRVRPPRLPRPRPRPNGMPRP | Escherichia coli TOP10 | shrunken log2 fold change | -0.32
RRIRQRPPRLPRPRPRPWSWPRP | Escherichia coli TOP10 | shrunken log2 fold change | -0.0208
RRIRKRPPRLPRPRPRPCWVPRP | Escherichia coli TOP10 | shrunken log2 fold change | 0.259
RRIRCRPPRLPRPRPRPNMGPRP | Escherichia coli TOP10 | shrunken log2 fold change | -0.14
RRIRDRPPRLPRPRPRPDNLPRP | Escherichia coli TOP10 | shrunken log2 fold change | 0.0916
RRIRDRPPRLPRPRPRPAWYPRP | Escherichia coli TOP10 | shrunken log2 fold change | -0.0946

----------
Tested on: Escherichia coli TOP10;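 note: peptides expressed intracellularly from a pBAD plasmid library in pooled LB shake-flask culture, induced with 0.3% L-arabinose, DNA abundance read by NGS, three biological replicates, DESeq2 with apeglm shrinkage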
method summary: shrunken log2 fold change of peptide-encoding DNA abundance (4.5 h post-induction vs induction); higher = less antimicrobial activity (less host growth inhibition)
assay setup: time post-induction: 4.5 h; library: site-saturation at positions 5, 18, 19, 20
Class definitions on shrunken log2 fold change: b0 (below -0.1), b1 (-0.1 to below 0.2), b2 (0.2 or more)

macromolecule sequence | category
RRIRARPPRLPRPRPRPRVAPRP | b2
RRIRRRPPRLPRPRPRPRKVPRP | b2
RRIRIRPPRLPRPRPRPQYTPRP | b0
RRIRMRPPRLPRPRPRPRMAPRP | b2
RRIRKRPPRLPRPRPRPCSKPRP | b1
RRIRYRPPRLPRPRPRPCPIPRP | b1
RRIRARPPRLPRPRPRPLCCPRP | b2
RRIRERPPRLPRPRPRPSFYPRP | b0
RRIRYRPPRLPRPRPRPNCPPRP | b0
RRIRLRPPRLPRPRPRPHYWPRP | b0
RRIRFRPPRLPRPRPRPSMCPRP | b0
RRIRVRPPRLPRPRPRPFVEPRP | b0
RRIRVRPPRLPRPRPRPQNQPRP | b0
RRIRWRPPRLPRPRPRPESQPRP | b1
RRIRQRPPRLPRPRPRPADWPRP | b2
RRIRVRPPRLPRPRPRPGFVPRP | b1
RRIRCRPPRLPRPRPRPFARPRP | b1
RRIRYRPPRLPRPRPRPKTIPRP | b0
RRIRPRPPRLPRPRPRPPMKPRP | b1
RRIRTRPPRLPRPRPRPTSQPRP | b1
RRIRWRPPRLPRPRPRPCRGPRP | b1
RRIRNRPPRLPRPRPRPQNCPRP | b1
RRIRTRPPRLPRPRPRPAVLPRP | b1
RRIRTRPPRLPRPRPRPHSNPRP | b0
RRIRVRPPRLPRPRPRPDKHPRP | b0
RRIRSRPPRLPRPRPRPVEYPRP | b0
RRIRWRPPRLPRPRPRPARAPRP | b2
RRIRDRPPRLPRPRPRPPDPPRP | b2
RRIRDRPPRLPRPRPRPMRAPRP | b2
RRIRVRPPRLPRPRPRPQQIPRP | b0
RRIRFRPPRLPRPRPRPPGTPRP | b2
RRIRGRPPRLPRPRPRPSHSPRP | b1

Attribution: the supplement of paper PMC9112550
